Origin of the recorded values: PubChem BioAssay (NCI)

# Tested on: HCT-116 colon
# test-details: NCI-60 one-dose screen, 48 h
# condition-details: 10 µM unless noted
# Protocol: Growth inhibition of the HCT-116 human tumor cell line is measured as a screen for anti-cancer activity. Cells are grown in 96 well plates and exposed to the test compound for 48 hours. Compounds are tested at a single concentration, which is 10^-5 M for most compounds. The reported endpoint is percent growth (GI% or GIPRCNT), where numbers from 0 - 100% represent growth inhibition, and numbers from -100% - 0 represent cell death. For example, a value of 40 represents 60% growth inhibition. […]
This is part of a sample that, as a whole, favours compounds with a hit. Of some 83,000 tested, about 20% had one in any assay. Activity calls are given as the source filed them. The calls were made as follows: active = growth percent below 10; inactive = the rest.
Classes used: active, inactive

[
  {
    "compound": "COCCOC(=O)C1=C(C)NC(=S)NC1c1ccc2c(c1)OCO2 (centres undefined)",
    "class": "inactive"
  },
  {
    "compound": "Oc1ccccc1/C=N/Nc1ccc2ccccc2n1",
    "class": "inactive"
  },
  {
    "compound": "COc1ccccc1-c1ccc2c(N)c(C(=O)c3ccc4c(c3)OCO4)sc2n1",
    "class": "inactive"
  },
  {
    "compound": "COC(/C=C/c1ccc([N+](=O)[O-])cc1)OC",
    "class": "inactive"
  },
  {
    "compound": "CN1CCN(Cc2ccc(NC(=O)c3cncc(C#Cc4c(N)ncc5ccc(C#N)cc45)c3)cc2C(F)(F)F)CC1",
    "class": "active"
  },
  {
    "compound": "COc1ccc(/C=N\\NC(=O)c2ccncc2)cc1O",
    "class": "inactive"
  },
  {
    "compound": "Cn1cc(-c2ccc(-c3cn(C)c4ncccc34)[nH]2)c2cccnc21",
    "class": "inactive"
  },
  {
    "compound": "CCCCCCCCOC(=O)CC[C@@H](C)[C@H]1CC[C@H]2[C@@H]3[C@H](OC(=O)CCN)C[C@@H]4C[C@H](OC(=O)CCN)CC[C@]4(C)[C@H]3C[C@H](OC(=O)CCN)[C@]12C",
    "class": "inactive"
  },
  {
    "compound": "Cc1ccc(SCN2CCN(c3cccc(Cl)c3)CC2)cc1",
    "class": "inactive"
  },
  {
    "compound": "N#CC1=C(N)Oc2c(ccc3ccccc23)C1c1cccs1 (centres undefined)",
    "class": "active"
  },
  {
    "compound": "CCOC(=O)N1CCN(c2nc(Nc3cc(C)[nH]n3)c3ccccc3n2)CC1",
    "class": "inactive"
  },
  {
    "compound": "O=C1C[C@H](N2C(=O)c3ccccc3S2(=O)=O)C2CO[C@@H]1O2",
    "class": "inactive"
  },
  {
    "compound": "O=C1C[C@H](Sc2nc(-c3ccc(F)cc3)cc(C(F)(F)F)n2)[C@H]2CO[C@@H]1O2",
    "class": "inactive"
  },
  {
    "compound": "Nc1cccc(NC(=O)C(=O)Nc2cccc(N)c2)c1",
    "class": "inactive"
  },
  {
    "compound": "O=[N+]([O-])c1cccc(C2CC(c3ccccc3)=Nc3ccccc3S2)c1 (centres undefined)",
    "class": "inactive"
  },
  {
    "compound": "CCCCCCCCCCNC(=O)CCl",
    "class": "inactive"
  },
  {
    "compound": "NC1=CC(=O)C(=O)c2ccccc21",
    "class": "inactive"
  },
  {
    "compound": "CCN(CC)CCC(=O)Nc1ccc(Cn2nnc3c2C(=O)c2nnn(Cc4ccc(NC(=O)CCN(CC)CC)cc4)c2C3=O)cc1",
    "class": "active"
  },
  {
    "compound": "Cc1cc2c(cc1C)NC1=C(N2)OC(c2c3ccccc3cc3ccccc23)C1=O (centres undefined)",
    "class": "active"
  },
  {
    "compound": "C=C1C(=O)O[C@H]2[C@H]1CC/C(Cn1cc(Cn3ccc4cc(Cl)ccc43)nn1)=C\\CC[C@@]1(C)O[C@@H]21",
    "class": "active"
  },
  {
    "compound": "C[C@@H]1CCC2=C(CCC[C@]2(C)C(=O)O)[C@@]1(C)CCc1ccoc1",
    "class": "inactive"
  },
  {
    "compound": "O=C(O)c1c([N+](=O)[O-])cnc2ccccc12",
    "class": "inactive"
  },
  {
    "compound": "COc1cccc(-c2cn3c(ccc4ccccc43)n2)c1",
    "class": "inactive"
  },
  {
    "compound": "COc1cc(-c2c3c(nc4c2c(C)nn4-c2ccccc2)-c2ccccc2C(=O)C3=O)cc(OC)c1OC",
    "class": "inactive"
  }
]

###

# Test system: NCI-H322M lung
# test-details: NCI-60 one-dose screen, 48 h
# condition-details: 10 µM unless noted
About 83,000 compounds went through this panel and 20% of them were active in at least one assay; those are over-represented in the sample as a whole. Active and inactive are the calls of the source. The calls were made as follows: active = growth percent below 10; inactive = the rest.
Possible outcomes: active, inactive

[
  {
    "molecule": "COc1cc(OC)c(/C=C/C(=O)c2c(OC)cc(OC)cc2OC)c(OC)c1",
    "class": "inactive"
  },
  {
    "molecule": "COc1ccc(N(Cc2cc(OC)c(OC)c(OC)c2)C2OC(=O)c3ccccc32)cc1 (centres undefined)",
    "class": "inactive"
  },
  {
    "molecule": "CCN(CC)Cc1cc(Nc2c3ccc(Cl)cc3nc3c(C)cccc23)ccc1O",
    "class": "active"
  },
  {
    "molecule": "Cc1ccc(Nc2nc(N)nc(Nc3ccc4ccccc4c3)n2)cc1",
    "class": "inactive"
  },
  {
    "molecule": "CC/C=C\\C[C@H](O)C/C=C1/C(=O)C=C[C@@H]1C/C=C\\CCCC(=O)NC(C)C",
    "class": "inactive"
  },
  {
    "molecule": "c1ccc(-c2nc(N3CCOCC3)c3c4c(sc3n2)CCCCC4)nc1",
    "class": "inactive"
  },
  {
    "molecule": "CC/C(=C(\\c1ccc(O)cc1)c1ccc(OCCN(C)CCN(C)C(=O)CCCCC(=O)c2c(C)[nH]c(/C=C3\\N=C(c4ccc[nH]4)C=C3OC)c2C)cc1)c1ccccc1",
    "class": "inactive"
  },
  {
    "molecule": "NS(=O)(=O)c1ccc(-n2ncc3c(=O)[nH]c(CN4CCN(c5cc6c(cc5F)c(=O)c(C(=O)O)cn6C5CC5)CC4)nc32)cc1",
    "class": "inactive"
  },
  {
    "molecule": "CCOC(=O)Cc1cnn(C)c1NC(=O)c1ccc(Cl)cc1NC(C)=O",
    "class": "inactive"
  }
]

###

# System: SK-MEL-2 melanoma
# test-details: NCI-60 one-dose screen, 48 h
# condition-details: 10 µM unless noted
The panel holds about 83,000 compounds, 20% with a hit somewhere; the sample as a whole holds those more often. The source made the active and inactive calls. The calls were made as follows: active = growth percent below 10; inactive = the rest.
Labels: active, inactive

[
  {
    "record-smiles": "CC1=N/C(=C\\c2cccc(Br)c2)C(=O)O1",
    "class": "inactive"
  },
  {
    "record-smiles": "Nc1ccc(Nc2nccc(-c3ccc4ccccc4c3)n2)cc1",
    "class": "active"
  },
  {
    "record-smiles": "COc1ccc(C/C(C)=C(\\c2ccc(Cl)cc2)c2ccc(OCCN3CCCCCC3)cc2)cc1",
    "class": "inactive"
  },
  {
    "record-smiles": "O=[N+]([O-])c1cccc(-c2nc3sccn3c2-c2ccnc(NCCNS(=O)(=O)c3ccc(C(F)(F)F)cc3)n2)c1",
    "class": "inactive"
  },
  {
    "record-smiles": "Cc1csc2ccc(Cl)cc12",
    "class": "inactive"
  },
  {
    "record-smiles": "NS(=O)(=O)c1ccc(Nc2nc3n[nH]c(Nc4ccccc4)c3c(=O)[nH]2)cc1",
    "class": "inactive"
  },
  {
    "record-smiles": "CN[C@@]12CC3(C=CC(=O)C=C3)O[C@]1(Cc1ccc(OC)cc1)N(C)C(=O)N2",
    "class": "inactive"
  },
  {
    "record-smiles": "COc1ccc2nc(NC(=O)c3cccnc3Nc3cc(OC)c(OC)c(OC)c3)sc2c1",
    "class": "inactive"
  }
]

###

# System: BT-549 breast
# test-details: NCI-60 one-dose screen, 48 h
# condition-details: 10 µM unless noted
The panel holds about 83,000 compounds, 20% with a hit somewhere; the sample as a whole holds those more often. Activity calls are given as the source filed them. How the source made its calls: active means growth percent below 10; inactive means the rest.
Labels: active, inactive

[
  {
    "record-smiles": "O=C(CN1CCN(c2cc3c(cc2F)c(=O)c(C(=O)O)cn3C2CC2)CC1)Nc1cc(=O)[nH]c(=O)[nH]1",
    "class": "inactive"
  },
  {
    "record-smiles": "CC(=O)/C(=C/c1cccc(Cl)c1)C(=O)c1ccccc1",
    "class": "inactive"
  },
  {
    "record-smiles": "COc1cc(OC)c(/C=C/C(=O)c2c(OC)cc(OC)cc2OC)c(OC)c1",
    "class": "inactive"
  },
  {
    "record-smiles": "COc1ccc(-n2c(C)nc3c(c(C)nn3-c3ccccc3)c2=O)cc1",
    "class": "active"
  },
  {
    "record-smiles": "c1c2c(cc3c1OCO3)Cc1cc3c(cc1Cc1cc4c(cc1C2)OCO4)OCO3",
    "class": "inactive"
  },
  {
    "record-smiles": "N#Cc1c(N)nc(N)nc1Nc1ccc(Br)cc1",
    "class": "inactive"
  },
  {
    "record-smiles": "O=C(CN1CCN(c2cc3c(cc2F)c(=O)c(C(=O)N/N=C/c2ccccc2)cn3C2CC2)CC1)N/N=C\\c1ccccc1",
    "class": "inactive"
  },
  {
    "record-smiles": "COc1ccc(-c2nn(-c3ccccc3)cc2/C=C2\\SC(=O)NC2=O)cc1",
    "class": "inactive"
  },
  {
    "record-smiles": "COc1ccc(-c2cc(-c3cccnc3)nc3sc4c(=O)n(-c5ccc(C)cc5)cnc4c23)cc1OC",
    "class": "inactive"
  },
  {
    "record-smiles": "COCCOc1ccc(-c2nc3ccc(-c4nc5ccc(N6CCN(C)CC6)cc5[nH]4)cc3[nH]2)cc1",
    "class": "active"
  }
]
